# System: Danio rerio larvae (5 dpf)
# experiment_notes: optomotor response to red moving lines, difference vs DMSO (percentage points (treated minus DMSO)); higher = more of the behaviour than the DMSO vehicle control
# experimental_setup: 10 µM; exposure time: 3 h pre-incubation + 3 h imaging
optomotor response to red moving lines reference
readout: optomotor response to red moving lines

compound	numeric_readout
C[C@H]1O[C@H](O[C@H]2[C@H](O)[C@@H](O)[C@@H](O[C@H]3[C@H](O)[C@@H](O)C(O)O[C@@H]3CO)O[C@@H]2CO)[C@H](O)[C@@H](O)[C@@H]1N[C@H]1C=C(CO)[C@@H](O)[C@H](O)[C@H]1O (stereo partly drawn)	6
OCCOCCN1CCN(C2=Nc3ccccc3Sc3ccccc32)CC1 [Quetiapine hemifumarate]	6.92
CCOC(=O)N1CCC(=C2c3ccc(Cl)cc3CCc3cccnc32)CC1	-14.1
